These data points were gathered from PubChem BioAssay AID256.

system: CD2F1 mice, L1210 leukemia ip, survival T/C; test: NCI In Vivo Anticancer Drug Screen. Data for tumor model L1210 Leukemia (intraperitoneal) in CD2F1 (CDF1) mice; settings: endpoint: mean survival time; dose: 200.0 mg/kg/injection; schedule: Q01DX009 (ip); vehicle: saline with Tween-80
Toxic doses and inconclusive results are not listed. Rule for the calls: active = survival T/C of 150% or more; inactive = T/C below 125% in these data. Positions of bridges follow the written chain, without caps; N, C: chain ends. Non-standard residues stand in square brackets, D forms with d. Residues, ends and D or L forms follow the SMILES beside them. Chains are numbered I, II in the order given. ξ: configuration not given here. *: point of attachment. ξF = NC(Cc1ccccc1)C(=O)O; Bz = O=C(c1ccccc1)*
Possible outcomes: active, inactive

1. O=C(O)/C=C\C(=O)Nc1ccc(Cl)cc1Cl
inactive
2. Cc1ccc([N+](=O)[O-])cc1NC(=O)Nc1cc([N+](=O)[O-])ccc1O
inactive
3. COc1ccc([Si](C)(C)CNCCSS(=O)(=O)O)cc1
inactive
4. CCc1c(C)[nH]c2ccc([N+](=O)[O-])cc12
inactive
5. OC(COc1ccccc1)CN1CCCCC1 (centres undefined)
inactive
6. COC(=O)C(CSSCC(NC(=O)CNC(=O)c1ccccc1)C(=O)OC)NC(=O)CNC(=O)c1ccccc1 (stereo not drawn) (I: Bz-Gly-Cys-OMe / II: Bz-Gly-Cys-OMe; disulfide I:2-II:2; configuration not given here)
inactive
7. O=C(Nc1nc2c(ccc3ccccc32)s1)Nc1ccccc1F
inactive
8. CC(=O)N(C)c1ccc(NC(=O)Nc2ccc(Cl)cc2C)cc1
inactive
9. Cc1ccc(C(=O)c2cnc(C)n2Cc2ccccc2)cc1
inactive
10. CCC(O)C(C)[N+](=O)[O-] (centres undefined)
inactive
11. O=C(c1ccc(-c2ccccc2)cc1)C1(Br)CCCCC1
inactive
12. CC(C)(C)C1CCC(S(=O)c2ccc([N+](=O)[O-])cc2[N+](=O)[O-])CC1 (centres undefined)
inactive
13. O=C(CCBr)NCNC(=O)CCBr
active
14. O=[N+]([O-])c1ccc(Cl)c(CCl)c1
inactive
15. O=S(=O)(CCBr)CCBr
inactive
16. O=[N+]([O-])c1ccc(Sc2ccc(Cl)cc2)cc1
inactive
17. Cc1ccc(CO)cc1C
inactive
18. Cc1ccc(S(=O)(=O)OCC(C)C)cc1
inactive
19. O=C(N/N=C/c1ccc([N+](=O)[O-])o1)c1ccccc1N=Cc1ccc([N+](=O)[O-])o1
inactive
20. O=C1CCC2=C(CCC3(C2)OCCO3)N1
inactive
21. CCCC/C=C/C1CCCCO1 (centres undefined)
inactive
22. O=C(O)C(CSC(c1ccccc1)(c1ccccc1)c1ccccc1)N=Cc1cccs1 (centres undefined)
inactive
23. CC(=O)Nc1cc2ccccc2c2ccc3ccccc3c12
inactive
24. ClCc1ccc2ccccc2n1
inactive
25. Nc1nc(N)nc(NC(=O)COc2cc(Cl)c(Cl)cc2Cl)n1
inactive
26. CCOC(=O)c1cc(CO)nc2c(Cl)cc(Cl)cc12
inactive
27. NC(=S)/N=C\C(CC(O)C(O)C(O)CO)=N\NC(N)=S (centres undefined)
inactive
28. Cc1cc(C)c(N2C(=O)CC(Sc3ccccc3N)C2=O)c(C)c1 (centres undefined)
inactive
29. CCOC(=O)NC(C)(C)CN(C(=O)OCC)c1ccccc1
inactive
30. Nc1nn[nH]n1
inactive
31. CC(C)C1=CC2=CCC3C(C)(C#N)CCCC3(C)C2CC1CC#N (centres undefined)
inactive
32. Cc1cc(Cl)ccc1NC(=O)CCl
inactive
33. COB1OB(OC)OB(OC)O1
inactive
34. NCC(=O)NC(Cc1ccccc1)C(=O)O (centres undefined) (H-Gly-[ξF]-OH)
inactive
35. CCOC(=O)Nc1cc(NC(=O)OCC)cc([N+](=O)[O-])c1
inactive
36. O=C(CNC(=O)Nc1cccc([N+](=O)[O-])c1)N/N=C/c1ccncc1
inactive
37. O=CNc1ccccc1
inactive
38. CCCCO.[Ti]
inactive
39. Fc1c(F)c(F)[c]([Ge]([c]2c(F)c(F)c(F)c(F)c2F)([c]2c(F)c(F)c(F)c(F)c2F)[c]2c(F)c(F)c(F)c(F)c2F)c(F)c1F
inactive
40. CCCCNC(=S)Nc1ccccc1
inactive
41. O=c1oc(-c2ccc([N+](=O)[O-])cc2)nc2cc(Cl)ccc12
inactive
42. Cc1oc2c(C)c3oc(=O)cc(C)c3cc2c1CCl
inactive
43. NS(=O)(=O)c1ccc(NC(=S)NC(=O)c2cccc3ccccc23)cc1
inactive
44. O=[N+]([O-])c1ccc2c(c1)CS(=O)(=O)C2
inactive
45. C=C(Br)CNC(=O)NCCN1CCOCC1
inactive
46. CCC/C(C)=N/Nc1ccc([N+](=O)[O-])cc1
inactive
47. CC(=O)Nc1ccc(/C=N/NC(=O)CNC(=O)Nc2ccc(Cl)c(Cl)c2)cc1
inactive
48. CC(CCc1ccccc1)NC1=NCCO1 (centres undefined)
inactive
49. O=c1[nH]c(-c2ccccc2)nc(-c2ccc(Cl)cc2)c1CCO
inactive
